Origin of values: ChEMBL document CHEMBL5096209

target: Gamma-aminobutyric acid receptor subunit alpha-5/beta-2/gamma-2 (Homo sapiens, UniProt P18507+P31644+P47870); assay: Antagonist activity at human alpha5beta2gamma2 GABAA receptor expressed in HEK cells by FMP assay; assay type: cell-based
Sequence (P47870 whole entry): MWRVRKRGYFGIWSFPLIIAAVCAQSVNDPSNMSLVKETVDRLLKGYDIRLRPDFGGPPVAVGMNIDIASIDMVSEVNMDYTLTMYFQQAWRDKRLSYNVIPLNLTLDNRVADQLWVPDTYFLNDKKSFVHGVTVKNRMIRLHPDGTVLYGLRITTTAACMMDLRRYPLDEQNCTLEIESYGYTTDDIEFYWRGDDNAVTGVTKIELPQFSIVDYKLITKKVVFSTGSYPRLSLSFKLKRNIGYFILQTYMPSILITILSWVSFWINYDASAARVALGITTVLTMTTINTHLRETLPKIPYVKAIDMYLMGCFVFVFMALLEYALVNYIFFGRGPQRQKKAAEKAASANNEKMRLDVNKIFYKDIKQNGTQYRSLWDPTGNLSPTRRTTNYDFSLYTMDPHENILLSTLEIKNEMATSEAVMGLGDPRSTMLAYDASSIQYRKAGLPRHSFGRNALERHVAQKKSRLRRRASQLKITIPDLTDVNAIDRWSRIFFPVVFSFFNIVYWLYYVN
Sequence (P18507 whole entry): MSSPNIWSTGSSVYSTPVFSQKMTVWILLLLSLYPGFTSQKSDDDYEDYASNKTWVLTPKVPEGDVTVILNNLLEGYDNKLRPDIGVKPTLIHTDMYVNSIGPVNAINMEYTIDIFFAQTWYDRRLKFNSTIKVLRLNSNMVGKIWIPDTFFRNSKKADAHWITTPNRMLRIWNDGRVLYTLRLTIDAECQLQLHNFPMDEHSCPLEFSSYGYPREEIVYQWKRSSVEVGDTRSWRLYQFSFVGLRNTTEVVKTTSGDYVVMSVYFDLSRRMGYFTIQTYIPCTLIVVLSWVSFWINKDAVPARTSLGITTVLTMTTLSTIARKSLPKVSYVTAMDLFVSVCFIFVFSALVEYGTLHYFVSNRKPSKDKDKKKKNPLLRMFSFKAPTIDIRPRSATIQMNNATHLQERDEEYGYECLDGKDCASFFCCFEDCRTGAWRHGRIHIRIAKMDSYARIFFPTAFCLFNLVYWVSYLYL
Sequence (P31644 whole entry): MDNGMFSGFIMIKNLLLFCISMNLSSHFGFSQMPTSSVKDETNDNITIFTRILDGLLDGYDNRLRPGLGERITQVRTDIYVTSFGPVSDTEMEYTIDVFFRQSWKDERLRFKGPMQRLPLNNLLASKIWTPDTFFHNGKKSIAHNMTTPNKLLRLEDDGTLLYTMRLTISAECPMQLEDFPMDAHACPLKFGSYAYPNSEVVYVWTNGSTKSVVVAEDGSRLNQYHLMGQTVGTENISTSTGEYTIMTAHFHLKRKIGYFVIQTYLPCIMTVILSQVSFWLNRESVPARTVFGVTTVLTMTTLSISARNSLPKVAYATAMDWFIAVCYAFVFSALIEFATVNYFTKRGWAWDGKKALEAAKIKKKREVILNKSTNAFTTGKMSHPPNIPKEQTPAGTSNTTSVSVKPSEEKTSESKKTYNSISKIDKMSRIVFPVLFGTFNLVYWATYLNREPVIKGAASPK
parameter.measured: IC50 (nM)
Answers are plain numbers, in nM.

- molecule.smiles: "O=C(Nc1cccc(C(=O)N2CCC3(CCNCC3)CC2)c1)c1cccs1"
  IC50 (nM): 51

With those in mind, consider the next compound.
*Q* Name the reported IC50 value associated with the compound CC(=O)Nc1cccc(C(=O)N2CCC3(CCNCC3)CC2)c1
*A* 590

----------
biological target: GABA-A receptor; anion channel; assay: Displacement of [3H]-muscimol from rat brain cortex GABAA receptor assessed as inhibition constant incubated for 1 hr by top-counter microplate scintillation counter method; type: cell membranes, Membrane
parameter.measured: Ki (nM)
Answers are plain numbers, in nM.

- molecule.smiles: "CC(=O)Nc1cccc(C(=O)N2CCC3(CCNCC3)CC2)c1"
  tested.target: "GABA-A receptor; anion channel"
  units.label: "nM"
  Ki: 560

*Q* Query for GABA-A receptor; anion channel: what Ki does the record show for O=C(Nc1cccc(C(=O)N2CCC3(CCNCC3)CC2)c1)c1cccs1 ?
*A* 20

----------
target: GABA-A receptor; anion channel; assay: Displacement of [3H]-muscimol from rat cortical synaptic membrane GABAA receptor assessed as inhibition constant by microscint-scintillation method; format: cell membranes, Cortex
parameter.measured: Ki (nM)
Answers are plain numbers, in nM.

- molecule.smiles: "O=C(c1cccc(OCc2ccccc2)c1)N1CCC2(CCNCC2)CC1"
  units.label: "nM"
  reported.result: 1000
- molecule.smiles: "O=C(c1cccc(Br)c1)N1CCC2(CCNCC2)CC1"
  units.label: "nM"
  reported.result: 300
- molecule.smiles: "O=C(c1ccccc1)N1CCC2(CCNCC2)CC1"
  units.label: "nM"
  reported.result: 1400
- molecule.smiles: "Brc1ccc(CN2CCC3(CCNCC3)CC2)cc1"
  units.label: "nM"
  reported.result: 27000

Dear colleague, could you send me Ki for each of the items below? Thanks.
1. O=C(c1cccc(OCc2cccs2)c1)N1CCC2(CCNCC2)CC1
2. Cc1cccc(C(=O)N2CCC3(CCNCC3)CC2)c1
3. Nc1ccc(C(=O)N2CCC3(CCNCC3)CC2)cc1
4. COC(=O)N1CCC2(CCNCC2)CC1
5. O=C(c1ccc(C(F)(F)F)cc1)N1CCC2(CCNCC2)CC1
6. Cc1ccc(C(=O)N2CCC3(CCNCC3)CC2)cc1
7. O=C(c1ccc(Br)cc1)N1CCC2(CCNCC2)CC1
8. Cc1ccccc1C(=O)N1CCC2(CCNCC2)CC1

*A*
1. 1000
2. 180
3. 710
4. 37000
5. 2200
6. 520
7. 230
8. 4200

Dear colleague, could you send me Ki for each of the items below? Thanks.
1. O=C(c1ccccc1Br)N1CCC2(CCNCC2)CC1
2. O=C(c1cccc(O)c1)N1CCC2(CCNCC2)CC1
3. O=C(c1ccc([N+](=O)[O-])cc1)N1CCC2(CCNCC2)CC1

*A*
1. 2700
2. 340
3. 9400
